- TARGET OF ASSAY: PARP1 L713F-nLuc biosensor (HCT116)
- ASSAY: PARP1 L713F-nLuc/akaLuc ratio relative to DMSO control (biosensor stabilization) (fold change); higher = more PARP1 biosensor stabilization (target engagement / stabilizer), active = hit call of the paper
- MEASUREMENT CONDITIONS: stock concentration (mM; final µM = stock mM x 1): 2; 24 h
MEASURE: PARP1 L713F-nLuc/akaLuc ratio

Solved cases below.
CC(C)Cn1cnc2c(N)nc3ccccc3c21    1.02 (inactive)
Cn1cc(-c2ccc(F)c(C(F)(F)F)c2)nc1C1CCN(c2ncnc3[nH]ncc23)CC1    0.945 (inactive)
CNC(=O)c1ccc(-c2cnc3ncc(Cc4ccc5ncccc5c4)n3n2)cc1F    0.95 (inactive)

Continue with the molecule presented below.
stdin: Enter measured PARP1 L713F-nLuc/akaLuc ratio, system PARP1 L713F-nLuc biosensor (HCT116), for the molecule shown: CCN(c1cc(-c2ccc(CN3CCOCC3)cc2)cc(C(=O)NCc2c(C)cc(C)[nH]c2=O)c1C)C1CCOCC1 [Tazemetostat (EPZ-6438)]
stdout: 1.21 (inactive)

---

- TARGET OF ASSAY: PARP1 L713F-nLuc biosensor (HCT116)
- ASSAY: PARP1 L713F-nLuc/akaLuc ratio relative to DMSO control (biosensor stabilization) (fold change); higher = more PARP1 biosensor stabilization (target engagement / stabilizer), active = hit call of the paper
- MEASUREMENT CONDITIONS: stock concentration (mM; final µM = stock mM x 1): 10; 24 h
Structures can show the parent of a compound that is named as a salt.
Give PARP1 L713F-nLuc/akaLuc ratio for every item shown.
Answers are plain numbers.

Check out these entries, answers already filled in.
COc1cc(Nc2ncc3c(n2)-c2ccc(Cl)cc2C(c2c(F)cccc2OC)=NC3)ccc1C(=O)O    0.939
CCN(CCO)CCCOc1ccc2c(Nc3cc(CC(=O)Nc4cccc(F)c4)[nH]n3)ncnc2c1    0.878
CN1CCN(c2ccc(Nc3ncc4cc(C#N)c(=O)n(C5CCCC5)c4n3)cc2)CC1    0.701

Required: PARP1 L713F-nLuc/akaLuc ratio, one value per compound below.
1. Cn1cc(C2=C(c3cn(CCCSC(=N)N)c4ccccc34)C(=O)NC2=O)c2ccccc21 [Ro 31-8220 (mesylate)]
2. O=C1/C(=C/c2ccc(O)c(Br)c2)CN(Cc2ccccc2)C/C1=C\c1ccc(O)c(Br)c1
3. N#CC1(c2ccc(NC(=O)c3cccnc3NCc3ccncc3)cc2)CCCC1
4. Cn1cc(CCn2cnc(-c3cnn(C)c3)c2-c2ccc(C#N)cc2)cn1
5. Cc1cc(C)c(CNC(=O)c2cc(-c3ccc(CN4CCOCC4)cc3)cc3c2cnn3C2CCCC2)c(=O)[nH]1
6. O=C(c1ccc(F)c(F)c1Nc1ccc(I)cc1F)N1CC(O)([C@@H]2CCCCN2)C1
7. CCN(CC)Cc1cc(Nc2ccnc3cc(Cl)ccc23)ccc1O [Amodiaquine (dihydrochloride dihydrate)]
8. N#Cc1ccc2[nH]c(O)c(-c3ccc(CN4CCOCC4)cn3)c2c1

stdout:
1.62
0.985
0.967
0.997
1.16
0.687
0.819
0.881

Please give PARP1 L713F-nLuc/akaLuc ratio for each item listed below.
1. CC[C@H](CO)Nc1nc(NCc2ccccc2)c2ncn(C(C)C)c2n1 [Roscovitine (Seliciclib,CYC202)]
2. Cc1cnc(Nc2ccc(OCCN3CCCC3)cc2)nc1Nc1cccc(S(=O)(=O)NC(C)(C)C)c1 [Fedratinib (hydrochloride hydrate)]
3. COc1cc(/C=C/C(=O)O[C@H]2CC[C@]34C[C@]35CC[C@]3(C)[C@@H]([C@H](C)CCC=C(C)C)CC[C@@]3(C)[C@@H]5CC[C@H]4C2(C)C)ccc1O
4. Cc1cc(CN2CCN(c3c(Br)cnc4nc(-c5ccc(N6CCN(C)CC6)cc5)[nH]c34)CC2)no1

stdout:
0.975
0.551
1.11
1.37

stdin: Quote PARP1 L713F-nLuc biosensor (HCT116) PARP1 L713F-nLuc/akaLuc ratio for entry "COc1ccc2cc3[n+](cc2c1OC)CCc1cc(O)c(O)cc1-3" .
stdout: 1.47

---

- TARGET OF ASSAY: PARP1 L713F-nLuc biosensor (HCT116)
- ASSAY: PARP1 L713F-nLuc/akaLuc ratio relative to DMSO control (biosensor stabilization) (fold change); higher = more PARP1 biosensor stabilization (target engagement / stabilizer), active = hit call of the paper
- MEASUREMENT CONDITIONS: stock concentration (mM; final µM = stock mM x 1): 10; 24 h
Kindly return met if reported PARP1 L713F-nLuc/akaLuc ratio is no lower than 0.8; return not met if it is lower.

O=C(Nc1c[nH]nc1-c1nc2ccc(CN3CCOCC3)cc2[nH]1)NC1CC1    met
Cc1cn(-c2cc(NC(=O)c3ccc(C)c(Nc4nccc(-c5cccnc5)n4)c3)cc(C(F)(F)F)c2)cn1 [Nilotinib (AMN-107)]    met
Cc1nc(=O)c2cc(CN(C)c3ccc(C(=O)N[C@@H](CCC(=O)O)C(=O)O)s3)ccc2[nH]1 [Raltitrexed]    met
Cc1nc(-c2cccnc2)sc1C(=O)Nc1ccccc1-c1cn2c(CN3CCOCC3)csc2n1    met
Cc1cc(Nc2nc(N[C@@H](C)c3ncc(F)cn3)ncc2Cl)[nH]n1    met

stdin: PARP1 L713F-nLuc/akaLuc ratio >= 0.8 for C=C(c1ccc(C(=O)O)cc1)c1cc2c(cc1C)C(C)(C)CCC2(C)C [Bexarotene] ?
stdout: not met

stdin: Kindly determine if PARP1 L713F-nLuc/akaLuc ratio recorded for C=CC[C@@H]1/C=C(\C)C[C@H](C)C[C@H](OC)[C@H]2O[C@@](O)(C(=O)C(=O)N3CCCC[C@H]3C(=O)O[C@H](/C(C)=C/[C@@H]3CC[C@@H](O)[C@H](OC)C3)[C@H](C)[C@@H](O)CC1=O)[C@H](C)C[C@@H]2OC [Tacrolimus (FK506)] is above or exactly 0.8.
stdout: not met

stdin: Check this compound for PARP1 L713F-nLuc/akaLuc ratio at or above 0.8: "O=C(CC[C@H](NC(=O)OCc1ccccc1)C(=O)O)NCCCC[C@H](NC(=O)OCc1ccccc1)C(=O)Nc1ccccc1"
stdout: met

---

- TARGET OF ASSAY: PARP1 L713F-nLuc biosensor (HCT116)
- ASSAY: PARP1 L713F-nLuc/akaLuc ratio relative to DMSO control (biosensor stabilization) (fold change); higher = more PARP1 biosensor stabilization (target engagement / stabilizer), active = hit call of the paper
- MEASUREMENT CONDITIONS: stock concentration (mM; final µM = stock mM x 1): 10; 24 h
What PARP1 L713F-nLuc/akaLuc ratio was measured for each of the following?
One number for each entry.

Give measured PARP1 L713F-nLuc/akaLuc ratio for every item shown.
1. Nc1nc(=O)n([C@H]2C[C@H](O)[C@@H](CO)O2)cc1F
2. Cc1nc(Nc2n[nH]c3c2CN(C(=O)N[C@H](CN(C)C)c2ccccc2)C3(C)C)c2sccc2n1
3. CC(C)N(C(=O)c1cc(F)ccc1Oc1cncnc1N1CC2(CCN(CC3CCC(NS(C)(=O)=O)CC3)CC2)C1)C(C)C (stereo not drawn)
4. NC(=O)c1ccc(Oc2ccc(C(N)=O)cc2)cc1

stdout:
1: 0.559; 2: 5.51; 3: 0.677; 4: 1.27

---

- TARGET OF ASSAY: PARP1 L713F-nLuc biosensor (HCT116) (UniProt P09874)
- Sequence (P09874 whole entry L713F, looked up): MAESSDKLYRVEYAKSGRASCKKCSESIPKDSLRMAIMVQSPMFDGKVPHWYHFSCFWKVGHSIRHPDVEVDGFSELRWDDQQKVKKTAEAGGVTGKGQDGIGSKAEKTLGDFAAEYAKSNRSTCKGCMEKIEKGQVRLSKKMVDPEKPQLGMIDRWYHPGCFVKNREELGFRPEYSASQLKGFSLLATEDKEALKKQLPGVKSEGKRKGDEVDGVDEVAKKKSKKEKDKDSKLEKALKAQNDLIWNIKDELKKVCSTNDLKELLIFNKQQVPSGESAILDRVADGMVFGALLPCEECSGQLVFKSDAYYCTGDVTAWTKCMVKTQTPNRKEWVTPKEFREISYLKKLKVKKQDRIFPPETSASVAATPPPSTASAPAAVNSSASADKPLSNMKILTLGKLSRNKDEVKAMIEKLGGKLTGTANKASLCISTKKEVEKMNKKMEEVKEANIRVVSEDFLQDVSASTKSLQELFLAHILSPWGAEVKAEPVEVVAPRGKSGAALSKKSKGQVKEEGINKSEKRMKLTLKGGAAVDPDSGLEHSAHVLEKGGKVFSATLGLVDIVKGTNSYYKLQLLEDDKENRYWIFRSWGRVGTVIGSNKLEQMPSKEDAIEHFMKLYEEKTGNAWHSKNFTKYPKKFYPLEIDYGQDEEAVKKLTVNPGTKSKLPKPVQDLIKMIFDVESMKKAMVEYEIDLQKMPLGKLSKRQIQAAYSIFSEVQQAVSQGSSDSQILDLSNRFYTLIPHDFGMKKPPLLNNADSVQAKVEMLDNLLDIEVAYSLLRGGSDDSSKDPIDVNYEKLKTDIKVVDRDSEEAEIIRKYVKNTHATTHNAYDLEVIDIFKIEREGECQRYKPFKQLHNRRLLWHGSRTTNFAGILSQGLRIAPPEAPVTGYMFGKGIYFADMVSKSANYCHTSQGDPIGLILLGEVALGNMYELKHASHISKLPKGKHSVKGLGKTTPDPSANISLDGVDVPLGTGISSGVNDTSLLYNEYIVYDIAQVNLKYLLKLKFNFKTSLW
- ASSAY: PARP1 L713F-nLuc/akaLuc ratio relative to DMSO control (biosensor stabilization) (fold change); higher = more PARP1 biosensor stabilization (target engagement / stabilizer), active = hit call of the paper
- MEASUREMENT CONDITIONS: stock concentration (mM; final µM = stock mM x 1): 10; 24 h
Where a name gives a salt, the structure may show the parent alone.
Could you please report measured PARP1 L713F-nLuc/akaLuc ratio for the items listed next?
Numbers only.

As a guide, the following entries are already answered.
Cc1ccc(OCCSc2ncccn2)c(Br)c1 [ZLN024 (hydrochloride)]    0.863
Nc1ncnc2c1ncn2[C@@H]1O[C@H](C(=O)N2CCN(CC(=O)Nc3cccc4c3CNC4=O)CC2)[C@@H](O)[C@H]1O [EB-47 (dihydrochloride)]    0.793
CC(C)(C)C[C@@H]1N[C@@H](C(=O)N[C@H]2CC[C@H](O)CC2)[C@H](c2cccc(Cl)c2F)[C@]12C(=O)Nc1cc(Cl)ccc12    0.287

Would you be so kind as to report PARP1 L713F-nLuc/akaLuc ratio for each listed record?
1. NC(=O)c1cccc2cn(-c3ccc([C@@H]4CCCNC4)cc3)nc12 [Niraparib]
2. NC(=O)/C(=C/n1cnc(-c2cc(C(F)(F)F)cc(C(F)(F)F)c2)n1)c1cncnc1 [Eltanexor (KPT-8602)]
3. O=C(c1cc(Cc2n[nH]c(=O)c3ccccc23)ccc1F)N1CC(CNC2CC2)C1
4. COC(=O)c1ccc2c(c1)NC(=O)/C2=C(\Nc1ccc(N(C)C(=O)CN2CCN(C)CC2)cc1)c1ccccc1
5. C=CC(=O)N1CCC[C@@H](n2nc(-c3ccc(Oc4ccccc4)cc3)c3c(N)ncnc32)C1

stdout:
[4.32, 0.767, 5.9, 0.6, 0.773]
